# measurement.notes: Mutagenicity in Salmonella typhimurium TA100 in presence of liver S9 fraction by AMES test
# Type: toxicity, subcellular
# study.conditions: salmonella enterica subsp. enterica serovar typhimurium
experimental.readout: Activity

These solved cases illustrate the format of a correct answer.
>>> measured_value("CCCCCCCCCC(c1ccccc1)n1c2cc(N)ccc2c2ccc(N)cc21 (stereo not given)")
"Non-Toxic"
>>> measured_value("CCCCn1c2cc(N)ccc2c2ccc(N)cc21")
"Toxic"
>>> measured_value("CC(c1ccccc1)n1c2cc(N)ccc2c2ccc(N)cc21 (stereo not given)")
"Toxic"
>>> measured_value("Nc1ccc2c3ccc(N)cc3n(CCCCCCCCCCN3CCOCC3)c2c1")
"Non-Toxic"
>>> measured_value("CC(C)c1ccc(C2c3cc(N)ccc3-c3ccc(N)cc32)cc1")
"Non-Toxic"
>>> measured_value("Nc1ccc2c(c1)C(=Cc1ccc(C(F)(F)F)cc1)c1cc(N)ccc1-2")
"Non-Toxic"
>>> measured_value("Nc1ccc2c(c1)C(c1ccc(F)cc1)c1cc(N)ccc1-2")
"Non-Toxic"
>>> measured_value("Nc1ccc2c3ccc(N)cc3n(Cc3cccc(OC4CCCC4)c3)c2c1")
"Non-Toxic"
>>> measured_value("Nc1ccc2c(c1)C(CCCCC(F)(F)F)(CCCCC(F)(F)F)c1cc(N)ccc1-2")
"Non-Toxic"
>>> measured_value("CCCCCCCCCCCCn1c2cc(N)ccc2c2ccc(N)cc21")
"Non-Toxic"

Reported Activity for CCCCCCOc1ccc(Cn2c3cc(N)ccc3c3ccc(N)cc32)cc1 : what is it?
Non-Toxic

Try CCCC1(CCC)c2cc(N)ccc2-c2ccc(N)cc21 next.
Non-Toxic

Also CCCCCCCCCCn1c2cc(N)ccc2c2ccc(N)cc21 , if possible.
Non-Toxic

One more compound: Nc1ccc2c(c1)C(CCCC(F)(F)F)(CCCC(F)(F)F)c1cc(N)ccc1-2
Non-Toxic

Also need Nc1ccc2c3ccc(N)cc3n(C(C3CC3)C3CC3)c2c1 , thanks.
Toxic

---

# measurement.notes: Mutagenicity in Salmonella typhimurium TA100 in presence of liver S9 fraction by AMES test
# Assay type: toxicity, subcellular
# study.conditions: salmonella enterica subsp. enterica serovar typhimurium
experimental.readout: Activity

Examples from the recorded data:
>>> measured_value("Nc1ccc2c(c1)C(Cc1ccc(C(F)(F)F)cc1)c1cc(N)ccc1-2")
"Non-Toxic"
>>> measured_value("CCCCC(c1ccccc1)n1c2cc(N)ccc2c2ccc(N)cc21 (stereo unspecified)")
"Non-Toxic"
>>> measured_value("Nc1ccc2c(c1)C(c1ccc(C(F)(F)F)cc1)c1cc(N)ccc1-2")
"Non-Toxic"
>>> measured_value("Nc1ccc2c(c1)C(=Cc1ccncc1)c1cc(N)ccc1-2")
"Toxic"
>>> measured_value("Nc1ccc2c(c1)C(c1ccc(Br)cc1)c1cc(N)ccc1-2")
"Non-Toxic"

I am curious: what Activity value has been reported for CC(C)=CC1c2cc(N)ccc2-c2ccc(N)cc21 ?
Toxic

Also CCCCOc1ccc(Cn2c3cc(N)ccc3c3ccc(N)cc32)cc1 ?
Non-Toxic

What do you have for CCCCC(CCCC)n1c2cc(N)ccc2c2ccc(N)cc21 ?
Non-Toxic

Please do the same for Nc1ccc2c(c1)C(c1ccc3ccccc3c1)c1cc(N)ccc1-2 as well.
Non-Toxic

What do you get for CC(C)(C)c1ccc(C2c3cc(N)ccc3-c3ccc(N)cc32)cc1 ?
Non-Toxic

Next up: COCCOc1cccc(Cn2c3cc(N)ccc3c3ccc(N)cc32)c1
Non-Toxic

---

# System: Hepatitis C virus
# measurement.notes: Antiviral activity against Hepatitis C virus subtype 1b infected in Huh 7.5.1 cells assessed as reduction in viral replication incubated for 3 days by NK5.1 luciferase reporter gene assay
# Assay type: functional, organism-based, Hepacivirus hominis
# study.conditions: Huh-7.5.1, 72 h
experimental.readout: EC50 (pM)
Write the number in pM without appending the unit.

# value lookup — system Hepatitis C virus, readout EC50, item CCCCC1(CCCC)c2cc(NC(=O)[C@@H]3C[C@@H](O)CN3C(=O)[C@H](NC(=O)OC)c3ccccc3)ccc2-c2ccc(NC(=O)[C@@H]3C[C@@H](O)CN3C(=O)[C@H](NC(=O)OC)c3ccccc3)cc21
2

---

# Tested on: Hepatitis C virus
# measurement.notes: Antiviral activity against Hepatitis C virus subtype 1b harboring NS5A L31V/Y93H double mutant infected in Huh 7.5.1 cells assessed as reduction in viral replication incubated for 3 days by NK5.1 luciferase reporter gene assay
# Type: functional, organism-based, Hepacivirus hominis
# study.conditions: Huh-7.5.1, 72 h
experimental.readout: pEC50
Give only the number. pEC50 is defined as minus log10 of concentration in molar units.

Look up pEC50 with Hepatitis C virus for this molecule: CCCCC1(CCCC)c2cc(NC(=O)[C@@H]3C[C@@H](O)CN3C(=O)[C@H](NC(=O)OC)c3ccccc3)ccc2-c2ccc(NC(=O)[C@@H]3C[C@@H](O)CN3C(=O)[C@H](NC(=O)OC)c3ccccc3)cc21
7.38

---

# measurement.notes: Mutagenicity in Salmonella typhimurium TA98 by AMES test
# Type: toxicity
# study.conditions: salmonella enterica subsp. enterica serovar typhimurium
experimental.readout: Activity

Below, 8 compounds whose answers are already recorded.
>>> measured_value("CC(C)c1ccc(C2c3cc(N)ccc3-c3ccc(N)cc32)cc1")
"Non-Toxic"
>>> measured_value("CCCCCCOc1ccc(Cn2c3cc(N)ccc3c3ccc(N)cc32)cc1")
"Non-Toxic"
>>> measured_value("Nc1ccc2c(c1)C(=Cc1ccncc1)c1cc(N)ccc1-2")
"Non-Toxic"
>>> measured_value("Nc1ccc2c(c1)C(Cc1ccc(C(F)(F)F)cc1)c1cc(N)ccc1-2")
"Toxic"
>>> measured_value("Nc1ccc2c(c1)C(c1ccc(F)cc1)c1cc(N)ccc1-2")
"Non-Toxic"
>>> measured_value("CCCCCCCCCCn1c2cc(N)ccc2c2ccc(N)cc21")
"Non-Toxic"
>>> measured_value("Nc1ccc2c3ccc(N)cc3n(Cc3cccc(OC4CCCC4)c3)c2c1")
"Non-Toxic"
>>> measured_value("Nc1ccc2c3ccc(N)cc3n(CCCCCCCCCCN3CCOCC3)c2c1")
"Non-Toxic"

# Activity lookup, item CC(c1ccccc1)n1c2cc(N)ccc2c2ccc(N)cc21 (stereo not drawn)
Non-Toxic

Continue with CC(C)(C)c1ccc(C2c3cc(N)ccc3-c3ccc(N)cc32)cc1
Non-Toxic

Now try CCCCC(c1ccccc1)n1c2cc(N)ccc2c2ccc(N)cc21 (stereo not drawn) .
Non-Toxic

Ok, now Nc1ccc2c3ccc(N)cc3n(C(C3CC3)C3CC3)c2c1
Non-Toxic

Also Nc1ccc2c(c1)C(CCCCC(F)(F)F)(CCCCC(F)(F)F)c1cc(N)ccc1-2 ?
Non-Toxic

How about this compound: Nc1ccc2c(c1)C(CCCC(F)(F)F)(CCCC(F)(F)F)c1cc(N)ccc1-2
Non-Toxic

Nc1ccc2c(c1)C(=Cc1ccc(C(F)(F)F)cc1)c1cc(N)ccc1-2 , same question.
Toxic

Continue with CCCCC(CCCC)n1c2cc(N)ccc2c2ccc(N)cc21
Non-Toxic

Record: Nc1ccc2c(c1)C(c1ccc3ccccc3c1)c1cc(N)ccc1-2
Non-Toxic

Would you mind doing COCCOc1cccc(Cn2c3cc(N)ccc3c3ccc(N)cc32)c1 as well?
Non-Toxic

For Nc1ccc2c(c1)C(c1ccc(Br)cc1)c1cc(N)ccc1-2 then?
Non-Toxic

---

# measurement.notes: Mutagenicity in Salmonella typhimurium TA98 in presence of liver S9 fraction by AMES test
# Type: toxicity, subcellular
# study.conditions: salmonella enterica subsp. enterica serovar typhimurium
experimental.readout: Activity

>>> measured_value("Nc1ccc2c(c1)C(=Cc1ccncc1)c1cc(N)ccc1-2")
"Toxic"
>>> measured_value("Nc1ccc2c(c1)C(CCCC(F)(F)F)(CCCC(F)(F)F)c1cc(N)ccc1-2")
"Toxic"
>>> measured_value("CCCCC(CCCC)n1c2cc(N)ccc2c2ccc(N)cc21")
"Non-Toxic"
>>> measured_value("CCCCCCCCCCCCn1c2cc(N)ccc2c2ccc(N)cc21")
"Non-Toxic"
>>> measured_value("CC(c1ccccc1)n1c2cc(N)ccc2c2ccc(N)cc21 (stereo unspecified)")
"Toxic"
>>> measured_value("Nc1ccc2c(c1)C(c1ccc3ccccc3c1)c1cc(N)ccc1-2")
"Toxic"
>>> measured_value("Nc1ccc2c(c1)C(CCCCC(F)(F)F)(CCCCC(F)(F)F)c1cc(N)ccc1-2")
"Non-Toxic"
>>> measured_value("CCCCC(c1ccccc1)n1c2cc(N)ccc2c2ccc(N)cc21 (stereo unspecified)")
"Toxic"
>>> measured_value("Nc1ccc2c3ccc(N)cc3n(C(C3CC3)C3CC3)c2c1")
"Toxic"
>>> measured_value("Nc1ccc2c(c1)C(c1ccc(C(F)(F)F)cc1)c1cc(N)ccc1-2")
"Toxic"

Now for another entry.
# Activity lookup, item CCCCCCCCCC(c1ccccc1)n1c2cc(N)ccc2c2ccc(N)cc21 (stereo unspecified)
Non-Toxic

---

# measurement.notes: Mutagenicity in Salmonella typhimurium TA100 by AMES test
# Type: toxicity
# study.conditions: salmonella enterica subsp. enterica serovar typhimurium
experimental.readout: Activity

>>> measured_value("CC(c1ccccc1)n1c2cc(N)ccc2c2ccc(N)cc21 (stereo not drawn)")
"Non-Toxic"
>>> measured_value("CCCCn1c2cc(N)ccc2c2ccc(N)cc21")
"Toxic"
>>> measured_value("CCCCCCCCCCCCn1c2cc(N)ccc2c2ccc(N)cc21")
"Non-Toxic"

The reported numbers originate from ChEMBL document CHEMBL4673315.
